B1: tRNA (parent)
chain: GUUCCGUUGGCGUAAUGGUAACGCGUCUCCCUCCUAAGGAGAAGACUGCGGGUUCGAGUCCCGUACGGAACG

Variants of: B1
Assay: yeast fitness relative to wild type (ratio to wild type); higher = fitter; tRNA-Arg(CCU), competitive growth, 37 C, YPD
Variants at the floor of the assay were thinned out.
yeast fitness values for the variants below.

Exercise: Please give the measured yeast fitness for this variant: G12C G39A A57U
Key: ≤ 0.5

Exercise: How about this variant: C29U U32C G51C
Key: ≤ 0.5

Exercise: Next entry: A15G A20U G39A A69C
Key: ≤ 0.5

Exercise: Moving on to the next variant: C5A A57G C61U
Key: ≤ 0.5

Exercise: Now consider A15G G18A C49A and answer again.
Key: ≤ 0.5

Exercise: Another variant: U19C C33A C34G
Key: ≤ 0.5

Exercise: Entry A14G C29A C62U please
Key: ≤ 0.5

Exercise: Param item: G6C U19C G38C G44C C46A
Key: ≤ 0.5

Turning to the following variant.
Exercise: What yeast fitness value was documented for this variant, A15G U28G A42U G48A G67A ?
Key: ≤ 0.5
